Test system: HT29 colon
Assay details: NCI tumour cell line growth inhibition, 48 h
Experimental readout: GI50

> print(dat)
                         structure.notation   result
1  CCNC(=O)Oc1ccc(/C(=C(\C)c2ccc(Cl)cc2)c2ccc(OCCN3CCCCC3)cc2)cc1  3.16 µM
2  Nc1ncnc2c1ncn2Cc1ccc(C23CC4CC(CC(C4)C2)C3)c(O)c1  15.1 µM
3  COc1cc(C(=O)N/N=C/c2cccc([N+](=O)[O-])c2)cc(OC)c1OC  2.89 µM

---

System: TK-10 renal
Assay details: NCI tumour cell line growth inhibition, 48 h
Known TGI of a selection of compounds
Experimental readout: TGI

> print(dat)
                                    compound    result
 1    CNC(=O)OCC1=C(COC(=O)NC)CN(c2ccccc2)C1  > 100 µM
 2  CC(C)n1nc(C#Cc2cccc(NC(=O)c3cccc(C(F)(F)F)c3)c2)c2c(N)ncnc21   4.45 µM
 3             CC(=O)c1nccc2c1c(C)nc1ccccc12  > 100 µM
 4  O=c1c2cc(F)ccc2sc2c(NCCCN3CCCC3)nc3ccccc3c12   3.65 µM
 5                 Cc1ccc(OCCCCCCNCCO)c(C)c1     30 µM
 6  c1ccc(C/C(=N\Nc2nc3ccccc3o2)c2ccccn2)cc1   1.81 µM
 7  CCOC(=O)C1=C(c2ccccc2)N(Cc2ccccc2)C2(O)C=CC(=O)C3C(=O)N(c4ccccc4)C(=O)C132 (configuration not stated)   7.24 µM
 8       CCCCCCCCC(=O)NCCCNCCCNC(=O)CCCCCCCC   30.2 µM
 9                      CSC1(SC)CCCCCCCCCCC1  > 100 µM
10  O=C(CCCN1CCc2[nH]c3cc(F)ccc3c2C1)c1ccc(F)cc1   24.9 µM
11  COc1cccc(N2N=C3c4ccccc4-n4c(nc5ccccc54)C3C2N)c1 (configuration not stated)  > 100 µM
12             CCOP(=O)(OCC)C(F)(F)CC1CCCCC1   > 10 µM
13                         CCOc1cc(C=O)ccc1O  > 100 µM
14  COC(=O)CNC(=O)/C=C/[C@H](O[Si](C)(C)C(C)(C)C)[C@H](/C=C/C(=O)NCC(=O)OC)O[Si](C)(C)C(C)(C)C   > 25 µM
15          CC(=O)C1=C(O)/C(=C\c2ccco2)OC1=O   > 10 µM
16  CC1(C)CC2(C)OC2C2(C1)N=NC(=Nc1ccccc1)O2 (configuration not stated)   8.31 µM
17  COc1ccc(N=C2NN=C(c3c[nH]c4ccccc34)CS2)cc1OC  > 100 µM

---

Tested on: IGROV1 ovarian
Assay details: NCI tumour cell line growth inhibition, 48 h
Experimental readout: GI50

> print(dat)
                                   compound    result
1  CC[C@@]1(O)C(=O)OCc2c1cc1n(c2=O)Cc2cc3c(NC(C)=O)c(O)ccc3nc2-1   6.27 µM
2  CC1SC2(CCCCC2)N(NC(=O)c2[nH]c3ccc(F)cc3c2-c2ccccc2)C1=O (centres undefined)     16 µM
3  CC(C)n1nc(C#Cc2cccc(NC(=O)c3cccc(C(F)(F)F)c3)c2)c2c(N)ncnc21  0.333 µM
4    COc1ncnc2c(-c3ccco3)cn(COCc3ccccc3)c12   > 50 µM
